test_target: T1, Human HARS (human, UniProt P12081 1-509, limits assumed)
T1 construct: also called human HRS; human histidyl-tRNA synthetase
T1 sequence: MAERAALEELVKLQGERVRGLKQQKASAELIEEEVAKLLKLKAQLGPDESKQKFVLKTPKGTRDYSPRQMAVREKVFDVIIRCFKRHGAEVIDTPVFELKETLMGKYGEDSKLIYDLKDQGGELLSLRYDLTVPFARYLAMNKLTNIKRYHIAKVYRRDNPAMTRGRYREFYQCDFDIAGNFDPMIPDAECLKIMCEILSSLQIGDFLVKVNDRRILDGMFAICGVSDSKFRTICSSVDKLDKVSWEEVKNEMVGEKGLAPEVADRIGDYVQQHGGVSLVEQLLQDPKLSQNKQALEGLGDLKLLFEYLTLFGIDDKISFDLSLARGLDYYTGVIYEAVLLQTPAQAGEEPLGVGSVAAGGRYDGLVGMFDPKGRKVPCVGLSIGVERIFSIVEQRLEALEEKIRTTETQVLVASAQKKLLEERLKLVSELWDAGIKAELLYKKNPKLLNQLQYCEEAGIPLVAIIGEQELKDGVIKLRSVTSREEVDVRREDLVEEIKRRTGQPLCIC
assay_explanation: SPR (ProteOn); HRS protein immobilized, antibody as analyte
endpoint_label: pKd
Recall that pKd is obtained by taking minus log10 of the concentration measured in molar.

For the binder KL31-467 (antibody, V domains shown, Humanized; IgG1m(zf) kappa) VH: QVQLVQSGAEVKKPGASVKVSCKASGYTFTDYCIGWIRQAPGQGLEWMGDICPGDTYTNDNEKFKDRATMTADTSTSTAYMELSSLRSEDTAVYYCARGEEQLGLRNAMDYWGQGTLVTVSS VL: DIVMTQSPDSLAVSLGERATINCQSQSVSTSTYNYMHWYQQKPGQPPKLLIKYASNLESGVPDRFSGSGSGTDFTLTISSLQAEDVATYYCQHSWEIPWTFGGGTKVEIK , what pKd is on record?
9.68

I'd like to know its pKd. The binder in question is AB04-276 (antibody, V domains shown, Human; IgG1m(zf) kappa) VH: QVQLVESGGGLVKPGGSLRLSCAASGFTFSDYYMTWIRQAPGKGLEWVSYISGSFAYTDYADSVKGRFTISRDNAKNSLYLQMNSLRDEDTAVYFCARYVYQVVAIGDYWGQGTLVTVSS VL: DIQMTQSPSSVSASVGDRVTITCRASQGISSWLAWYQQKPGRAPKLLIFAASSLQSGVPSRFSGSGSGTHFTLTISSLQPEDFATYYCQQAKSFPYTFGQGTKLEIK
9.34

Need pKd, item AB04-380 (antibody, V domains shown, Human; IgG1m(zf) kappa) VH: QVQLVESGGGLVKPGGSLRLSCAASGFTFSDYYMTWIRQAPGKGLEWVSYISGSFRYTNYAPSVKGRFTISRDNAKNSLYLQMNSLRDEDTAVYFCARYVYQVVAIGDLWGQGTLVTVSS VL: DIQMTQSPSSVSASVGDRVTITCRASQGISSWLAWYQQKPGRAPKLLIFAASSLQSGVPSRFSGSGSGTHFTLTISSLQPEDFATYYCQQAESFPYTFGQGTKLEIK
10.59
